Target: IL-17A(FLAG-Tagged): IL-17RA(His-Tagged) (Homo sapiens, UniProt Q16552, K93Q)
Sequence (Q16552 with tags, fused parts or gaps K93Q): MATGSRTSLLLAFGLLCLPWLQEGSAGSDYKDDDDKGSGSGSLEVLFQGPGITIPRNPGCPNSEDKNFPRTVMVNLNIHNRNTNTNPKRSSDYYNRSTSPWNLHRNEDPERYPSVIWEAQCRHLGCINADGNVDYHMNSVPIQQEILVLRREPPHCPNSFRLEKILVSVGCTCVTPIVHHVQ
Test: IL-17A(FLAG-Tagged): IL-17RA(His-Tagged) Binding Disruption Eu-HTRF Assay
Conditions: IL-17A/IL-17RA binding disruption, simple average if tested more than once
Source text: IL-17A(FLAG-Tagged): IL-17RA(His-Tagged) Binding Disruption Eu-HTRF Assay An antibody directed against the FLAG tag of IL-17A (SEQ ID NO:1) is labeled with the HTRF donor chromophore (Europium-cryptate). […] The fluorescence-resonance energy transfer (FRET) depends on the vicinity of the donor chromophore to the acceptor, and interruption of the binding between the IL-17A and IL-17RA causes the reduction/loss of FRET. […]
recorded_metric: IC50 (nM)

CC(C)c1nonc1C(=O)N[C@H](c1cn2ncc([C@H](NC(=O)CC34CC(F)(C3)C4)C3CC3)cc2n1)C1CCC(F)(F)CC1 [Example 279]: 36

[1] CC(C)Oc1nocc1C(=O)N[C@H](c1cn2ncc([C@H](NC(=O)CCC(F)F)C3CC3)cc2n1)C1CCC(F)(F)CC1 [Example 302]
[2] Cc1nonc1C(=O)N[C@H](c1cn2ncc([C@H](NC(=O)[C@@H](F)[C@@H](C)C(F)(F)F)C3CC3)cc2n1)C1CCC(F)(F)CC1 (relative stereo) [Example 354]
[3] CC(C)n1nccc1C(=O)N[C@@H](CC(C)(C)C(F)(F)F)c1cn2ncc([C@H](NC(=O)CC3CC(F)(F)C3)C3CC3)cc2n1 [Example 543]
[4] CC(C)n1nccc1C(=O)N[C@H](c1cn2ncc([C@H](NC(=O)CCC(F)F)C3CC3)cc2n1)C1CCC(F)(F)CC1 [Example 280]
[5] Cc1noc(C(C)C)c1C(=O)N[C@H](c1cn2ncc([C@H](NC(=O)CCC(F)(F)F)C3CC3)cc2n1)C1CCC(F)(F)CC1 [Example 81]
### Prompt Sequence the entries by IC50, beginning with the highest number. Give me the labels in the order the question wants.
### Response 5, 1, 2, 3, 4
